tested_system: human CB2R (Homo sapiens)
Construct: host or cells: CHO cells
Sequence (P34972 whole entry): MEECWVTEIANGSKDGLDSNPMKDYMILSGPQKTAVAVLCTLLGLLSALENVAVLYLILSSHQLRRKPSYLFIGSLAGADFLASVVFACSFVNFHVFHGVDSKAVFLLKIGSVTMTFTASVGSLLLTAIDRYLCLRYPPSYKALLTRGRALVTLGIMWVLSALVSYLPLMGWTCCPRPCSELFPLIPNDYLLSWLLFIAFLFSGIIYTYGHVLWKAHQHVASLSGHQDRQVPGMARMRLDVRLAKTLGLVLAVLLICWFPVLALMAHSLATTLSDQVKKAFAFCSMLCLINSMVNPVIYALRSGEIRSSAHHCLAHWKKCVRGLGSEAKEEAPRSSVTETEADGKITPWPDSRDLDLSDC
procedure_text: CB2R mediated modulation of cAMP synthesis
Format: cell-based
condition_parameters: CHO cells expressing human CB2R; inhibition of forskolin-stimulated cAMP synthesis; agonist; read-out: CB2 EC50
Overview of reported EC50 across a group of compounds:
Lab book: enter the figure in nM, no units written.

Query: Specify measured EC50 for `CC(C)(C)c1cc(NC(=O)[C@@H]2CCN2C(=O)C2CCC(F)(F)CC2)no1` .
Response: 127

Query: Specify measured EC50 for `O=C(Nc1ccc(C(F)(F)F)c(F)c1)[C@@H]1CCN1C1CCOCC1` .
Response: 371

Query: Specify measured EC50 for `O=C(Nc1nc(-c2ccccc2)cs1)[C@@H]1CCN1C1CCOCC1` .
Response: 465

---

tested_system: human CB2R (Homo sapiens)
Construct: host or cells: CHO cells
procedure_text: CB2R mediated modulation of cAMP synthesis
Type: cell-based
condition_parameters: CB2 EC50 (nM), CHO cells expressing human CB2R; inhibition of forskolin-stimulated cAMP synthesis; agonist
Overview of reported EC50 across a group of molecules:
Lab book: enter the figure in nM, no units written.

Worked examples follow.
{"molecule": "O=C(Nc1nc2c(F)cccc2s1)[C@@H]1CCN1C1CCOCC1", "units_text": "nM", "EC50": 153}
{"molecule": "CC(C)(CO)c1cc(NC(=O)[C@@H]2CCN2c2ccc(Cl)cc2)on1", "units_text": "nM", "EC50": 18}
{"molecule": "CC(C)(C)c1cc(NC(=O)[C@@H]2CCN2S(=O)(=O)c2ccc(S(C)(=O)=O)cc2)on1", "units_text": "nM", "EC50": 357}
{"molecule": "CC(C)(C)c1cc(NC(=O)[C@@H]2CCN2c2ncc(C(F)(F)F)cc2Cl)no1 [drawing 125]", "units_text": "nM", "EC50": 0.02}
{"molecule": "COCC(C)(C)c1cc(NC(=O)[C@@H]2CCN2c2ccc(F)cc2)no1", "units_text": "nM", "EC50": 7.7}
{"molecule": "CCc1sc(NC(=O)[C@@H]2CCN2c2ncc(C(F)(F)F)cc2Cl)nc1-c1ccccc1", "units_text": "nM", "EC50": 2.7}
{"molecule": "COCC(C)(C)c1cc(NC(=O)[C@@H]2CCN2C2CCOCC2)on1", "units_text": "nM", "EC50": 75}
{"molecule": "CC(C)(C)c1cc(NC(=O)[C@@H]2CCN2C2CCOCC2)sn1", "units_text": "nM", "EC50": 313}

Query: Specify measured EC50 for CC(C)(C)c1cc(NC(=O)[C@@H]2CCN2c2ncc(C(F)(F)F)cc2Cl)no1 [drawing 126] .
Response: 0.05

Query: Specify measured EC50 for `CC(C)(C)c1nsc(NC(=O)[C@@H]2CCN2C2CCOCC2)n1` .
Response: 471

Query: Specify measured EC50 for `COCC(C)(C)c1cc(NC(=O)[C@@H]2CCN2c2ccc(Cl)cc2)no1` .
Response: 12

---

tested_system: human CB2R (Homo sapiens)
Construct: host or cells: CHO cells
procedure_text: CB2R mediated modulation of cAMP synthesis
Format: cell-based
condition_parameters: CB2 EC50 (nM), CHO cells expressing human CB2R; inhibition of forskolin-stimulated cAMP synthesis; agonist
endpoint_name: EC50
Please make sure the unit comes right after the number.

Worked examples follow.
{"molecule": "CC(C)(C)c1coc(NC(=O)[C@@H]2CCN2C2CCOCC2)n1", "tested_system": "human CB2R (Homo sapiens)", "EC50": "206 nM"}
{"molecule": "CC(C)(C)c1cc(NC(=O)[C@@H]2CC(=O)N2c2ccc(Cl)cc2)no1", "tested_system": "human CB2R (Homo sapiens)", "EC50": "50 nM"}
{"molecule": "CC(C)(C)c1cc(NC(=O)[C@@H]2CC(=O)N2c2ccc(Cl)cc2)on1", "tested_system": "human CB2R (Homo sapiens)", "EC50": "17 nM"}
{"molecule": "CC(C)(C)c1cc(NC(=O)[C@@H]2CCN2C2CCOCC2)no1 [drawing 128]", "tested_system": "human CB2R (Homo sapiens)", "EC50": "8.8 nM"}

Now examine the next entry.
Query: Param request: EC50 | system human CB2R (Homo sapiens) | item `CCc1sc(NC(=O)[C@@H]2CCN2CC2CCOCC2)nc1-c1ccccc1`
Response: 4.1 nM
